# Test system: EKVX NSCLC
# method-summary: NCI tumour cell line growth inhibition, 48 h
measurement-type: TGI

Input line: State recorded TGI with EKVX NSCLC, entry O=S1(=O)N(Cc2ccccc2)[C@@H](Cc2ccccc2)C2O[C@H]2[C@H](Cc2ccccc2)N1Cc1ccccc1 (stereo partly drawn) , no comment.
Output line: > 7.5 µM

Input line: State recorded TGI with EKVX NSCLC, entry O=C(OCCN1CCCCC1)C(c1ccccc1)C1(O)CCSCC1 (stereo not drawn) , no comment.
Output line: > 100 µM

Input line: State recorded TGI with EKVX NSCLC, entry CCON=C1C(C)(C)C(C)(C)C(C)(C)C1(C)C , no comment.
Output line: > 100 µM

Input line: State recorded TGI with EKVX NSCLC, entry O=c1[nH]c(=O)n(C2CC(O)C(CO)O2)cc1C(OCC(F)(F)F)OCC(F)(F)F (stereo not drawn) , no comment.
Output line: > 100 µM

Input line: State recorded TGI with EKVX NSCLC, entry NC1C2C(CC(=O)O)OCC=C3CN4CCC1(C(=O)C(=O)O)C4CC32 (stereo not drawn) , no comment.
Output line: > 100 µM

Input line: State recorded TGI with EKVX NSCLC, entry Cc1ccc(-n2c(O)c3c(N)n[nH]c3c(C#N)c2=O)cc1 , no comment.
Output line: > 100 µM

Input line: State recorded TGI with EKVX NSCLC, entry COc1ccc(C(=C(I)c2ccccc2)c2ccc(OC)cc2)cc1 , no comment.
Output line: > 100 µM

Input line: State recorded TGI with EKVX NSCLC, entry CC1CC[C@@]2(OC1)O[C@H]1C[C@H]3[C@@H]4CC[C@H]5C[C@@H](OC6OC(CO)C(OC7OC(CO)C(OC8OC(CO)C(O)C(OC9OC(C)C(OC%10OC(C)C(O)C(O)C%10O)C(O)C9O)C8OC8OCC(O)C(O)C8O)C(O)C7O)C(O)C6O)CC[C@]5(C)[C@H]4CC(=O)[C@]3(C)[C@H]1[C@@H]2C (stereo partly drawn) , no comment.
Output line: 40.4 µM

Input line: State recorded TGI with EKVX NSCLC, entry CCN(CC)CCOc1ccc(Nc2ncc3cc(-c4c(Cl)cccc4Cl)c(=O)n(CCOC)c3n2)cc1 , no comment.
Output line: 7.38 µM

Input line: State recorded TGI with EKVX NSCLC, entry CC(=NCCN(CCN=C(C)c1c(O)cc(C)oc1=O)CCN=C(C)c1c(O)cc(C)oc1=O)c1c(O)cc(C)oc1=O , no comment.
Output line: > 100 µM

Input line: State recorded TGI with EKVX NSCLC, entry CC(=O)O[C@H]1CC[C@@]2(C)C(CC[C@]3(C)C2CC[C@]2(C)Oc4c(C)cc(O)cc4C[C@@H]23)C1(C)C (stereo partly drawn) , no comment.
Output line: 46.9 µM

Input line: State recorded TGI with EKVX NSCLC, entry COC(=O)c1ccc(CCc2cc(O)ccc2O)cc1 , no comment.
Output line: 32.4 µM

Input line: State recorded TGI with EKVX NSCLC, entry O=C(Cn1c(=O)c(-c2ccccc2)nc2ccccc21)c1cccnc1 , no comment.
Output line: > 100 µM

Input line: State recorded TGI with EKVX NSCLC, entry CC(=O)NC1=C(C)C(=O)c2c(nc3n2CCC3O)C1=O (stereo not drawn) , no comment.
Output line: 51.4 µM

Input line: State recorded TGI with EKVX NSCLC, entry NS(=O)(=O)c1ccc(C2C3=C(CCCC3=O)OC3=C2C(=O)c2ccccc2C3=O)cc1 (stereo not drawn) , no comment.
Output line: 2.53 µM
